The entries below come with measured Maximum mean fluorescence intensity values attached.
targetOrTestSystem: T1, human MSLN protein endogenously expressed on OVCAR3 tumor cells (human, UniProt Q13421 296-598)
T1 construct: whole, on cells; endogenous expression on a tumor cell line; also called human mesothelin
T1 sequence (Q13421 other isoform, or with tags, fused parts or gaps): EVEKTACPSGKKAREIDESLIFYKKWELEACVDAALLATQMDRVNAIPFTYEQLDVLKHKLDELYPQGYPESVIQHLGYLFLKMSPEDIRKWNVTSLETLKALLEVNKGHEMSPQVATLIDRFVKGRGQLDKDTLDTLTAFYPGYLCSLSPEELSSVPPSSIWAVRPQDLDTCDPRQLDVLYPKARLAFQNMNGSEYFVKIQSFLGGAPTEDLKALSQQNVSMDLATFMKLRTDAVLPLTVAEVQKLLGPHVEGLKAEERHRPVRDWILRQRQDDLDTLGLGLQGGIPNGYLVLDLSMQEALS
measurementNotes: FACS on OVCAR3 cells;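 also: flow cytometry of chimeric antibody binding to OVCAR3 cells, 2 h on ice, read as cellular mean fluorescence intensity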
Answer with the value's number alone.

1) S009-F8-29.1 (antibody, human IgG1, kappa, V domains shown, human-murine chimeric antibody, human IgG1/kappa constant regions) VH: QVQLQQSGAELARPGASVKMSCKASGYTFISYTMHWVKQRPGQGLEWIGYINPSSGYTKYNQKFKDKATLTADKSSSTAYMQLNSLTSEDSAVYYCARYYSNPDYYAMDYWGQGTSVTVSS VL: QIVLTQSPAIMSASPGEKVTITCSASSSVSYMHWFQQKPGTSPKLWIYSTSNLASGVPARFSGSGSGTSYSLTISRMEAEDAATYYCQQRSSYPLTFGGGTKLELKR; 5430

Please turn your attention to the following entry.
[ask] What does the data say about its Maximum mean fluorescence intensity? Entry: S009-F8-13.8 (antibody, human IgG1, kappa, V domains shown, human-murine chimeric antibody, human IgG1/kappa constant regions) VH: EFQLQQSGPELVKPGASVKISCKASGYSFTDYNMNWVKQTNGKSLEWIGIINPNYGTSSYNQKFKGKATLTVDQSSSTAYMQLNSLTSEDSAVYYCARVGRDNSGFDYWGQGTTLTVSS VL: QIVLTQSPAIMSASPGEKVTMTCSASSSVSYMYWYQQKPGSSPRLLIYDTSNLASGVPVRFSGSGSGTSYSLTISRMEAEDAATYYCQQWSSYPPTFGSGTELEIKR
[reply] 13000

The reported measurements were obtained from patent US20250250357A1.
